Molecular target: T1, full-length beta-Catenin (Uniprot ID P35222) (Homo sapiens (Human), UniProt P35222 1-781)
T1 construct: The assay text says 'full-length beta-Catenin (Uniprot ID P35222)'; also called bCat; B-Catenin
T1 sequence: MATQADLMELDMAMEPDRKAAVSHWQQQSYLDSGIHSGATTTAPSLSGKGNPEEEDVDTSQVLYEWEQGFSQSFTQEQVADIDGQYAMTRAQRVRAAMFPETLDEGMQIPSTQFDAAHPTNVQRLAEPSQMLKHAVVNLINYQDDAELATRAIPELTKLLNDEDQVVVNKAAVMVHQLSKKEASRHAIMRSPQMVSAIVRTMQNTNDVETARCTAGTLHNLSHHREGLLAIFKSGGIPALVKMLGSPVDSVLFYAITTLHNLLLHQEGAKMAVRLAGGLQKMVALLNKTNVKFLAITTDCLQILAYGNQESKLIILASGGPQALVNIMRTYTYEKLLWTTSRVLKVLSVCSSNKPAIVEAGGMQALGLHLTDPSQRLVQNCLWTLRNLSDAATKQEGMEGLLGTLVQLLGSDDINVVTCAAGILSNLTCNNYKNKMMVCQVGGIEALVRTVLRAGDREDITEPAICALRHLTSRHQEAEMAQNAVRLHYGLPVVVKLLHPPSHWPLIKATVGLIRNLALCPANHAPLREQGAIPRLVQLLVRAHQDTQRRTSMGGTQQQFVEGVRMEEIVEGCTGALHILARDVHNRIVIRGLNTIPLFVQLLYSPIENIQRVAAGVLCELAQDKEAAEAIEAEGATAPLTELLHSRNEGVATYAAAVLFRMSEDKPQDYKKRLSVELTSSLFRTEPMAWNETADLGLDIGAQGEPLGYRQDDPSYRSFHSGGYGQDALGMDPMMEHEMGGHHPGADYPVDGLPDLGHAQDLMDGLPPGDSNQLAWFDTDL
Test: fluorescence polarization competition; full-length beta-catenin, competitor 5FAM-TCF4(10-53) probe
pEC50: −log10 of the molar value. Starred links: 1 amine or outer side, 2 acyl side, 3 side chain; linkers in the order of their positions; H or OH if unused. Positions of bridges follow the written chain, without caps; N, C: chain ends. Non-standard residues stand in square brackets, D forms with d. Primed or numbered codes have the meaning given here. *: point of attachment. B5(24) = 2-amino-2-(pent-4-en-1-yl)hept-6-enoic acid, 2,2-bis(4-pentenyl)glycine (stitching residue), C=CCCCC(CCCC=C)(N[*:1])C(=O)[*:2]; B5(4) = 2,2-bis(4-pentenyl)glycine = 2-amino-2-(pent-4-en-1-yl)hept-6-enoic acid (stitching residue), C=CCCCC(CCCC=C)(N[*:1])C(=O)[*:2]; B5 = 2-amino-2-(pent-4-en-1-yl)hept-6-enoic acid, C=CCCCC(CCCC=C)(N[*:1])C(=O)[*:2]; Bta = N[C@@H](Cc1csc2ccccc12)C(=O)O; αAllylPro = C=CC[C@@]1(C(=O)O)CCCN1; Azidoacetyl = [N-]=[N+]=NCC(=O)*; S8 = C=CCCCCCC[C@](C)(N)C(=O)O; Nicotinoyl = O=C(c1cccnc1)*
Classify as follows. Reported pEC50 greater than or equal to 7: Yes. Reported pEC50 below: No.

Below, 6 binders whose answers are already recorded.
BINDER | GROUP_LABEL
Ac-[αAllylPro]DK(Azidoacetyl)[B5(4)]DEAAFQ[S8]F[Bta]Q-NH2 (staple 1-4, 4-11; not fully specified, Stapled peptide composition) [I-590] | Yes
Nicotinoyl-[αAllylPro]DI[B5]DEAAFQ[S8]F[Bta]Q-NH2 (staple 1-4, 4-11, Stapled peptide composition; N-terminal cap Nic) [I-598] | No
Ac-[αAllylPro]DI[B5]DQAAFQ[S8]F[Bta]Q-NH2 (staple 1-4, 4-11, Stapled peptide composition) [I-603] | No
Ac-[αAllylPro]DI[B5(24)]DEAA[Bta]Q[S8]FFQ-NH2 (staple 1-4, 4-11; not fully specified; printed as Ac-PL3-Asp-Ile-B5-Asp-Glu-Ala-Ala-BztA-Gln-S8-Phe-Phe-Gln-NH2, Stapled peptide composition) [I-586] | No
XDLXDEAAFNXFXQ (not fully specified; Ac-PL3-Asp-Leu-B5-Asp-Glu-Ala-Ala-Phe-Asn-S8-Phe-BztA-Gln-NH2; stapled PL3(1)-B5(4) and B5(4)-S8(11) by olefin metathesis, Stapled peptide composition; same description as I-576, later eluting HPLC peak (staple isomer)) [I-577] | Yes
Ac-[αAllylPro]DI[B5(24)]DEAA[Bta]Q[S8]FFQ-NH2 (staple 1-4, 4-11; not fully specified, Stapled peptide composition) [I-585] | No

Lab note: next binder to report on.
Query: Record Ac-[αAllylPro]DI[B5]DEAAFQ[S8]F[Bta]K(Azidoacetyl)-NH2 (staple 1-4, 4-11, Stapled peptide composition) [I-595] ; criterion: pEC50 no lower than 7. Met?
Response: Yes
